Where these numbers come from: ChEMBL document CHEMBL4017456

test-description: Volume of distribution at steady state in Sprague-Dawley rat plasma at 1 mg/kg, iv administered as single bolus dose by LC-MS/MS analysis
Assay type: ADME, organism-based
study-conditions: read-out: Vdss
reported-endpoint: Vd (L/kg)

compound | u | measured-number
O=S(=O)(Nc1cscn1)c1cc(Cl)c(OCC2NCCC=C2c2ccc(F)cc2)cc1F (stereo unspecified) | L/kg | 0.6

----------
test-description: in vivo
study-conditions: Sprague-Dawley, rat, plasma, iv, 0.5 mg/kg

structure-string | u | Vd
N[C@@H]1CCC=C(c2ccc(F)cc2)[C@H]1COc1cc(F)c(S(=O)(=O)Nc2cscn2)cc1Cl | L/kg | 8.9
